Provide the recorded k d, affinity hC3b for the entries that follow.
# TESTED ON: human C3b (Homo sapiens, UniProt P01024)
# Construct: purchased Complement Technology, Tyler, TX, USA
# Sequence (P01024 23-667 limits assumed): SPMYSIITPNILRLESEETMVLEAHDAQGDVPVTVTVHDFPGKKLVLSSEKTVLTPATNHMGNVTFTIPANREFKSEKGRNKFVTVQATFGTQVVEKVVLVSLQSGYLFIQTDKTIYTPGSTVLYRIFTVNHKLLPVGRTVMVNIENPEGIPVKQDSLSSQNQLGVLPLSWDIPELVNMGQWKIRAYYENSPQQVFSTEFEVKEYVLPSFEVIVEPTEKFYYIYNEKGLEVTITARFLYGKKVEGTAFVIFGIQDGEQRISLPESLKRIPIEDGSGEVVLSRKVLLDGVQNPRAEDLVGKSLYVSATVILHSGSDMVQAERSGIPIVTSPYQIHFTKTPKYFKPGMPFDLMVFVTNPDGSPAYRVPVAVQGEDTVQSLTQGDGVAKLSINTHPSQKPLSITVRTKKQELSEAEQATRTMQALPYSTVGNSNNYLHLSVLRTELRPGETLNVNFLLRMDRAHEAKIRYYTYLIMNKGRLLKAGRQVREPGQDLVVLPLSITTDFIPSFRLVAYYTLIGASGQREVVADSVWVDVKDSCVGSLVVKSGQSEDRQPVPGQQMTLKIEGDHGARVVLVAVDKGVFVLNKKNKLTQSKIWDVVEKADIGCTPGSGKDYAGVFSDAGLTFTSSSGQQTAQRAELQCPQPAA
# Sequence (P01024 749-1663 partner limits assumed): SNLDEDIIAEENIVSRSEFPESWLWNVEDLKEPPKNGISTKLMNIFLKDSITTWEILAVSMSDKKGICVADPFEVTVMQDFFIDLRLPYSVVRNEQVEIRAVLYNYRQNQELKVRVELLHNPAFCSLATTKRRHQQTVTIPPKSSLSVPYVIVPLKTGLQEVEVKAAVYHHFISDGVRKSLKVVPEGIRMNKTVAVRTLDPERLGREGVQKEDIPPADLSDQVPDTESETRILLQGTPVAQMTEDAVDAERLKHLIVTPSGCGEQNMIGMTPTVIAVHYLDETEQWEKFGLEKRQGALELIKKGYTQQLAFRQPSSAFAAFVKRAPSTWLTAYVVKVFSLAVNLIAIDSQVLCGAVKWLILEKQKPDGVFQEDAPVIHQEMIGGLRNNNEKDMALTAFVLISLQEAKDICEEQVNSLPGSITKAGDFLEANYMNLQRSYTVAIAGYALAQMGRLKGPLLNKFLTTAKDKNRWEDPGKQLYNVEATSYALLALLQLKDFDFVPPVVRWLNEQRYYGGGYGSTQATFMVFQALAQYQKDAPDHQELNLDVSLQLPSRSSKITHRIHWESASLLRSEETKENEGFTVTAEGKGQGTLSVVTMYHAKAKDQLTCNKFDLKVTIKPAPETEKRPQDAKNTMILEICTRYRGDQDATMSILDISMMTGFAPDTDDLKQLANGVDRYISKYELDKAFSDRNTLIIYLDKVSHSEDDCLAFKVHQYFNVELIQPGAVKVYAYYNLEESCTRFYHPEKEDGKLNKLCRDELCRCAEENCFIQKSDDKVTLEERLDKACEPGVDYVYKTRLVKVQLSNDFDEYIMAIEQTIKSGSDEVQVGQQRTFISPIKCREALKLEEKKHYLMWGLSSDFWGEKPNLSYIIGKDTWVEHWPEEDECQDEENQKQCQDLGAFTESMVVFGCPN
# EXPERIMENT NOTES: SPR kinetic binding to immobilized human C3b
# MEASUREMENT CONTEXT: SPR, 1:1 Langmuir fit, average of 3 independent experiments, SD in brackets
Where a SMILES comes first, the peptide text is derived from it. Bridges are numbered along the chain shown (N, C = ends). [ ]: non-standard residue; d: D form. Asu = N[C@@H](CCCCCC(=O)O)C(=O)O

// solved cases for k d, affinity hC3b follow
- MOLECULE: "CC[C@H](C)[C@H](NC(C)=O)C(=O)N[C@H]1CSSC[C@@H](C(=O)N[C@H](C(N)=O)[C@@H](C)O)NC(=O)[C@H](CCCNC(=N)N)NC(=O)[C@H](Cc2c[nH]cn2)NC(=O)[C@H](C)NC(=O)CNC(=O)[C@H](Cc2c[nH]c3ccccc23)NC(=O)[C@H](CCCCCC(=O)O)NC(=O)[C@H](CCC(N)=O)NC(=O)[C@H](Cc2c[nH]c3ccccc23)NC(=O)[C@H](C(C)C)NC1=O [Cp01-Asp6Asu] (Ac-ICVWQ[Asu]WGAHRCT-NH2; disulfide 2-12)"
  ASSAY VALUE: "23(4) 10^–2 s^–1"
- MOLECULE: "CC[C@H](C)[C@H](NC(=O)[C@H](N)Cc1ccc(O)cc1)C(=O)N[C@H]1CSSC[C@@H](C(=O)N(C)[C@H](C(N)=O)[C@@H](C)CC)NC(=O)[C@H](CCCNC(=N)N)NC(=O)[C@H](Cc2c[nH]cn2)NC(=O)[C@H](C)NC(=O)CN(C)C(=O)[C@H](Cc2c[nH]c3ccccc23)NC(=O)[C@H](CC(=O)O)NC(=O)[C@H](CCC(N)=O)NC(=O)[C@H](Cc2cn(C)c3ccccc23)NC(=O)[C@H](C(C)C)NC1=O [Cp40, reference compound]"
  ASSAY VALUE: "0.1 10^–2 s^–1"
- MOLECULE: "CC[C@H](C)[C@H](NC(C)=O)C(=O)N[C@H]1CSSC[C@@H](C(=O)N[C@H](C(N)=O)[C@@H](C)O)NC(=O)[C@H](CCCNC(=N)N)NC(=O)[C@H](Cc2c[nH]cn2)NC(=O)[C@H](C)NC(=O)CNC(=O)[C@H](Cc2c[nH]c3ccccc23)NC(=O)[C@H](CO)NC(=O)[C@H](CCC(N)=O)NC(=O)[C@H](Cc2c[nH]c3ccccc23)NC(=O)[C@H](C(C)C)NC1=O [Cp01-Asp6Ser] (Ac-ICVWQSWGAHRCT-NH2; disulfide 2-12)"
  ASSAY VALUE: "18(3) 10^–2 s^–1"
- MOLECULE: "CC[C@H](C)[C@H](NC(C)=O)C(=O)N[C@H]1CSSC[C@@H](C(=O)N[C@H](C(N)=O)[C@@H](C)O)NC(=O)[C@H](CCCNC(=N)N)NC(=O)[C@H](Cc2c[nH]cn2)NC(=O)[C@H](C)NC(=O)CNC(=O)[C@H](Cc2c[nH]c3ccccc23)NC(=O)[C@H](CC(N)=O)NC(=O)[C@H](CCC(N)=O)NC(=O)[C@H](Cc2c[nH]c3ccccc23)NC(=O)[C@H](C(C)C)NC1=O [Cp01-Asp6Asn] (Ac-ICVWQNWGAHRCT-NH2; disulfide 2-12)"
  ASSAY VALUE: "11(1) 10^–2 s^–1"

Now, please, on to the next molecule.
Ask | For the molecule shown here, CC[C@H](C)[C@H](NC(C)=O)C(=O)N[C@H]1CSSC[C@@H](C(=O)N[C@H](C(N)=O)[C@@H](C)O)NC(=O)[C@H](CO)NC(=O)[C@H](Cc2c[nH]cn2)NC(=O)[C@H](C)NC(=O)CNC(=O)[C@H](Cc2c[nH]c3ccccc23)NC(=O)[C@H](CC(=O)O)NC(=O)[C@H](CCC(N)=O)NC(=O)[C@H](Cc2c[nH]c3ccccc23)NC(=O)[C@H](C(C)C)NC1=O [Cp01-Arg11Ser] (Ac-ICVWQDWGAHSCT-NH2; disulfide 2-12) , give the reported k d, affinity hC3b.
Reply | 16(3) 10^–2 s^–1

---

# TESTED ON: human C3b (Homo sapiens, UniProt P01024)
# Construct: purchased Complement Technology, Tyler, TX, USA
# EXPERIMENT NOTES: SPR kinetic binding to immobilized human C3b
# MEASUREMENT CONTEXT: SPR, 1:1 Langmuir fit, average of 3 independent experiments, SD in brackets
Where a SMILES comes first, the peptide text is derived from it. Bridges are numbered along the chain shown (N, C = ends). [ ]: non-standard residue; d: D form. Asu = N[C@@H](CCCCCC(=O)O)C(=O)O
Provide the recorded k a, affinity hC3b for the entries that follow.

// solved cases for k a, affinity hC3b follow
- COMPOUND: "CC[C@H](C)[C@H](NC(C)=O)C(=O)N[C@H]1CSSC[C@@H](C(=O)N[C@H](C(N)=O)[C@@H](C)O)NC(=O)[C@H](CCCNC(=N)N)NC(=O)[C@H](Cc2c[nH]cn2)NC(=O)[C@H](C)NC(=O)CNC(=O)[C@H](Cc2c[nH]c3ccccc23)NC(=O)[C@H](CC(N)=O)NC(=O)[C@H](CCC(N)=O)NC(=O)[C@H](Cc2c[nH]c3ccccc23)NC(=O)[C@H](C(C)C)NC1=O [Cp01-Asp6Asn] (Ac-ICVWQNWGAHRCT-NH2; disulfide 2-12)"
  k a, affinity hC3b: "5.4(1.5) 10^5 M^–1 s^–1"
- COMPOUND: "CC[C@H](C)[C@H](NC(C)=O)C(=O)N[C@H]1CSSC[C@@H](C(=O)N[C@H](C(N)=O)[C@@H](C)O)NC(=O)[C@H](CCCNC(=N)N)NC(=O)[C@H](Cc2c[nH]cn2)NC(=O)[C@H](C)NC(=O)CNC(=O)[C@H](Cc2c[nH]c3ccccc23)NC(=O)[C@H](CCCCCC(=O)O)NC(=O)[C@H](CCC(N)=O)NC(=O)[C@H](Cc2c[nH]c3ccccc23)NC(=O)[C@H](C(C)C)NC1=O [Cp01-Asp6Asu] (Ac-ICVWQ[Asu]WGAHRCT-NH2; disulfide 2-12)"
  k a, affinity hC3b: "1.2(0.5) 10^5 M^–1 s^–1"

Now, please, on to the next compound.
Ask | For the compound shown here, CC[C@H](C)[C@H](NC(C)=O)C(=O)N[C@H]1CSSC[C@@H](C(=O)N[C@H](C(N)=O)[C@@H](C)O)NC(=O)[C@H](CCCNC(=N)N)NC(=O)[C@H](Cc2c[nH]cn2)NC(=O)[C@H](C)NC(=O)CNC(=O)[C@H](Cc2c[nH]c3ccccc23)NC(=O)[C@H](CC(=O)O)NC(=O)[C@H](CCC(N)=O)NC(=O)[C@H](Cc2c[nH]c3ccccc23)NC(=O)[C@H]([C@@H](C)CC)NC1=O [Cp01-Val3Ile] (Ac-ICIWQDWGAHRCT-NH2; disulfide 2-12) , give the reported k a, affinity hC3b.
Reply | 8.8(0.1) 10^5 M^–1 s^–1

---

# TESTED ON: human C3b (Homo sapiens, UniProt P01024)
# Construct: purchased Complement Technology, Tyler, TX, USA
# EXPERIMENT NOTES: SPR kinetic binding to immobilized human C3b
# MEASUREMENT CONTEXT: SPR, 1:1 Langmuir fit, average of 3 independent experiments, SD in brackets; read-out: K D, affinity hC3b
Where a SMILES comes first, the peptide text is derived from it. Bridges are numbered along the chain shown (N, C = ends). [ ]: non-standard residue; d: D form. Trp(1-Me) = Cn1cc(C[C@H](N)C(=O)O)c2ccccc21; NMeI = CC[C@H](C)[C@H](NC)C(=O)O; aIle = CC[C@@H](C)[C@H](N)C(=O)O; Sar = CNCC(=O)O
OBSERVATION TYPE: pKd
One number for each entry, as −log10 of the molar value.

- COMPOUND: "CC[C@H](C)[C@H](NC(C)=O)C(=O)N[C@H]1CSSC[C@@H](C(=O)N[C@H](C(N)=O)[C@@H](C)O)NC(=O)[C@H](CCCNC(=N)N)NC(=O)[C@H](Cc2c[nH]cn2)NC(=O)[C@H](C)NC(=O)CNC(=O)[C@H](Cc2c[nH]c3ccccc23)NC(=O)[C@H](CO)NC(=O)[C@H](CCC(N)=O)NC(=O)[C@H](Cc2c[nH]c3ccccc23)NC(=O)[C@H](C(C)C)NC1=O [Cp01-Asp6Ser] (Ac-ICVWQSWGAHRCT-NH2; disulfide 2-12)"
  ASSAY VALUE: 6.22

Ask | Request body: readout pKd, system human C3b (Homo sapiens, UniProt P01024), query CC[C@@H](C)[C@@H]1NC(=O)[C@@H](NC(=O)[C@@H](NC(=O)[C@H](N)Cc2ccc(O)cc2)[C@@H](C)CC)CSSC[C@@H](C(=O)N(C)[C@H](C(N)=O)[C@@H](C)CC)NC(=O)[C@H](CCCNC(=N)N)NC(=O)[C@H](Cc2c[nH]cn2)NC(=O)[C@H](C)NC(=O)CN(C)C(=O)[C@H](Cc2c[nH]c3ccccc23)NC(=O)[C@H](CC(=O)O)NC(=O)[C@H](CCC(N)=O)NC(=O)[C@H](Cc2cn(C)c3ccccc23)NC1=O [Cp40-Val3aIle] (H-[dY]IC[aIle][Trp(1-Me)]QDW[Sar]AHRC[NMeI]-NH2; disulfide 3-13) . Return the value.
Reply | 7.81
